Form field: IC50 (one value per entry).
# testSystem: α4β1 (Homo sapiens, UniProt P05556+P13612)
# Construct: Ramos cells, (50 μL at 2×10^6/mL) labeled with 5 μM Calcein AM; endogenous in cells; host or cells: Ramos cells
# Sequence (P13612 34-1032): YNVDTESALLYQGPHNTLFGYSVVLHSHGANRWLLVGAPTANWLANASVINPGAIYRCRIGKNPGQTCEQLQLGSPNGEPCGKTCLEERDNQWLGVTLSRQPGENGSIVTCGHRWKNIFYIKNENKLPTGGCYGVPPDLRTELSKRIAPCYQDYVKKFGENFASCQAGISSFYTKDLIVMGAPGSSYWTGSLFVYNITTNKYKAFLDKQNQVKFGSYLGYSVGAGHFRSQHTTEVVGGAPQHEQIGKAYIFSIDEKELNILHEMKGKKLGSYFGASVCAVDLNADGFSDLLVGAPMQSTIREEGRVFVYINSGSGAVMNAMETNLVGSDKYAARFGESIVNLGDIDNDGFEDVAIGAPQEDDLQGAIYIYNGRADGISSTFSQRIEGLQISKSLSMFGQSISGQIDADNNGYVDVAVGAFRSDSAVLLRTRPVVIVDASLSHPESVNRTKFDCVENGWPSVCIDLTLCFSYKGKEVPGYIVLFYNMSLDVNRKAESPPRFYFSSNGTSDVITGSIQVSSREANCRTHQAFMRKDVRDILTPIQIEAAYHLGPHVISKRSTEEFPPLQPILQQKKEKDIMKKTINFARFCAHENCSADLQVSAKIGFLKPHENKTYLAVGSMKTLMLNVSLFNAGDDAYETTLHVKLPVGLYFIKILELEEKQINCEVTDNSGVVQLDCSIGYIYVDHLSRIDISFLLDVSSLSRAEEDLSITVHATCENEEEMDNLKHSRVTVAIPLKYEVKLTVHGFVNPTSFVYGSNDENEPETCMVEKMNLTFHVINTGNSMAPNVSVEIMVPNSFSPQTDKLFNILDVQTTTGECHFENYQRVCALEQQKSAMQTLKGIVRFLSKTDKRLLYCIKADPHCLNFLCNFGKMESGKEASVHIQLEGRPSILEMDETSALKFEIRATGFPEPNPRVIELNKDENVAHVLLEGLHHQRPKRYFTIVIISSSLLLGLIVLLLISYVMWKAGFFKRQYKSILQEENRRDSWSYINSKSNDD
# Sequence (P05556 21-798): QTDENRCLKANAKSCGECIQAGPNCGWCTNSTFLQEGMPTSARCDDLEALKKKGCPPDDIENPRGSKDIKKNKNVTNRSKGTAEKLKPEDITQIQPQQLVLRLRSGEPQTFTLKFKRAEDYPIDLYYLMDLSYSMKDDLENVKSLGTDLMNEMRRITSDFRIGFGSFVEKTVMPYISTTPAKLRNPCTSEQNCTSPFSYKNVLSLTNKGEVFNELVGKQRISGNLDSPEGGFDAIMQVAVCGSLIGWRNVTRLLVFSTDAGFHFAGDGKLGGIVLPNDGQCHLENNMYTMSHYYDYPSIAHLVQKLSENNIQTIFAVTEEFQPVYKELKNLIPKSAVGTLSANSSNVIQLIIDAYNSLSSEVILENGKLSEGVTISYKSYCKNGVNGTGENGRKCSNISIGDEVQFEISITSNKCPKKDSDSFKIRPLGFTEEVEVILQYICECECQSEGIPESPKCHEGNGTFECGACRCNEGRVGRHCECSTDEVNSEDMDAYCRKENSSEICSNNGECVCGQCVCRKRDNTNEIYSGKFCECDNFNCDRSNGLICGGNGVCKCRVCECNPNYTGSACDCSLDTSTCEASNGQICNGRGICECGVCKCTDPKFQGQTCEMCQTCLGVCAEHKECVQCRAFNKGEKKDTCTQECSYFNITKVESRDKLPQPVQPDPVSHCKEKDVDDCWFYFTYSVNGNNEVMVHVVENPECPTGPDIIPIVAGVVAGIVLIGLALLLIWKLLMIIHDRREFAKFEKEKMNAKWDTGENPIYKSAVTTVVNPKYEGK
# procedureText: Ramos Cell Adhesion Assay (α4β1 Mediated Adhesion/VCAM-1)
# Type: cell-based
# conditionDetails: Ramos cells adhering to recombinant hVCAM-1

## Input Checklist item: IC50 tested on α4β1 (Homo sapiens, UniProt P05556+P13612), entry COc1cnn(C)c(=O)c1-c1ccc(C[C@H](NC(=O)N2c3ccc(F)cc3CCC2C)C(=O)O)cc1 (mixture of isomers) , value?
## Output > 5 µM

## Input Field: IC50 (α4β1 (Homo sapiens, UniProt P05556+P13612)). Entry: "COc1cccc2c1OCCCN(C(=O)N[C@@H](Cc1ccc(-c3c(OC)cnn(C)c3=O)cc1)C(=O)O)C2"
## Output > 5 µM

## Input Give the reported IC50 for "COc1cnn(C)c(=O)c1-c1ccc(C[C@H](NC(=O)N2CCCN(c3nc4ccccc4o3)CC2)C(=O)O)cc1" (system: α4β1 (Homo sapiens, UniProt P05556+P13612)).
## Output > 5 µM

## Input Find IC50 (α4β1 (Homo sapiens, UniProt P05556+P13612)) for the entry "COc1cnn(C)c(=O)c1-c1ccc(C[C@H](NC(=O)NCc2ccccc2)C(=O)O)cc1"
## Output > 5 µM

## Input # get_value(readout= IC50, system= α4β1 (Homo sapiens, UniProt P05556+P13612)) for "COc1cnn(C)c(=O)c1-c1ccc(C[C@H](NC(=O)N(Cc2ccccc2)C(C)C)C(=O)O)cc1"
## Output > 5 µM

## Input Query the reported IC50 for α4β1 (Homo sapiens, UniProt P05556+P13612); item: COc1cnn(C)c(=O)c1-c1ccc(C[C@H](NC(=O)N2c3ccccc3CC2C)C(=O)O)cc1 (mixture of isomers)
## Output > 5 µM

## Input What is its IC50 for α4β1 (Homo sapiens, UniProt P05556+P13612)? Entry: "COc1cnn(CCO)c(=O)c1-c1ccc(C[C@H](NC(=O)Nc2c(Cl)cccc2Cl)C(=O)O)cc1"
## Output 2.87 µM

## Input Record COc1cnn(C)c(=O)c1-c1ccc(C[C@H](NC(=O)N2CCC(O)C2)C(=O)O)cc1 (mixture of isomers) : what is its IC50 with α4β1 (Homo sapiens, UniProt P05556+P13612)?
## Output > 5 µM
